# target.or.system: T1, recombinant human C1r2s2 tetramer (human, UniProt P09871 16-688; P00736 18-705)
# T1 construct: C1s and C1r co-expressed in HEK293 and purified from the supernatant as tetramer; also called hC1r2s2
# T1 chain 1: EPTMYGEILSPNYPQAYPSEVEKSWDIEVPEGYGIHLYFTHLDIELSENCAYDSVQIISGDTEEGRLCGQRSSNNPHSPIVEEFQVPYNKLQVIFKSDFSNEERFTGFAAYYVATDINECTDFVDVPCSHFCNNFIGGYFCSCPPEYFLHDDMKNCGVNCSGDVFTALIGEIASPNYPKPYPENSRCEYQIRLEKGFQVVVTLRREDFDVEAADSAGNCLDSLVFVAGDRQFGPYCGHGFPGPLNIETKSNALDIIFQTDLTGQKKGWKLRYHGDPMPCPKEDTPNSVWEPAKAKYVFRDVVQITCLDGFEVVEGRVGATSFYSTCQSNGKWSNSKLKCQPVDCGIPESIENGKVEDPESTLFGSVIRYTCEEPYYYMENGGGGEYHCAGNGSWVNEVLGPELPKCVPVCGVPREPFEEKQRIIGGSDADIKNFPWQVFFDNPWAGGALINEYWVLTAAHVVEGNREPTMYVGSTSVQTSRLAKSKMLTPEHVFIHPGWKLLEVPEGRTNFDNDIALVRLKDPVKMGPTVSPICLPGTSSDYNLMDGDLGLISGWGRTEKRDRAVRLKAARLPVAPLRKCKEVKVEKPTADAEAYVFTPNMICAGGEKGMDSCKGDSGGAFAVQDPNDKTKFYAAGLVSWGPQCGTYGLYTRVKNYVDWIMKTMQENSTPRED
# T1 chain 2: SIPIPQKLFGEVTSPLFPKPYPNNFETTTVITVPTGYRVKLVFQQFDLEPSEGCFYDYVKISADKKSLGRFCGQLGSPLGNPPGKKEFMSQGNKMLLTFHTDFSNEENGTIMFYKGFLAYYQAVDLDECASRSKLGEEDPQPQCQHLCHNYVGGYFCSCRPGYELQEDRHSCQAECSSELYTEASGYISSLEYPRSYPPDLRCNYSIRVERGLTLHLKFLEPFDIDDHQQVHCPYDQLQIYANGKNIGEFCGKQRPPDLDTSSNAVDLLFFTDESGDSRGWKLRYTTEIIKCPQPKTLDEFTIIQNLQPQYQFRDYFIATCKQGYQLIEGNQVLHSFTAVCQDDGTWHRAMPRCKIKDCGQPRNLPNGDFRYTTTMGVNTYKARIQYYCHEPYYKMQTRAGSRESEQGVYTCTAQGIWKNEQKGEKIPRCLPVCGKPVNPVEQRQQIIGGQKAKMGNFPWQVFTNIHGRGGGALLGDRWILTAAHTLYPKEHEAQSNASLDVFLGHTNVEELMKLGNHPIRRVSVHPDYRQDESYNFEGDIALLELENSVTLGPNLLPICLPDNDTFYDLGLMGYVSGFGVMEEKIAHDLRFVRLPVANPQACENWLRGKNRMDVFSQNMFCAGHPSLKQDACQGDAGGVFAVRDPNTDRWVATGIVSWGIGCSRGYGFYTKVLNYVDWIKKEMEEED
# measurement.protocol: SPR (Biacore T200), 37 C, pH 7.4; hC1r2s2 captured by IPN009, antibody as analyte
pKd: −log10 of the molar value.
Listed here are binders together with their documented pKd.
readout.type: pKd

INSERT INTO results (binder, number) VALUES
  ('COS0637pHv17-G1A3FcgSil+LowpI (antibody, V domains shown, VH 24, VL 55, CH 45, CL 23) VH: QVQLVESGGGVVQPGRSLRLSCAASGFTFSAYAMNWIRQPPGKGLEWIGLIYGSGHEFYASWAEERVTISVDTSKNQFSLKLSSVTAADTAVYYCARGRSKNYNSDFHLWGQGTLVTVSS VL: DIQMTQSPSSLSASVGDRVTITCQAHEILHDKKNLAWYQQKPGQPPKLLIYGASQRESGVPSRFSGSGSGTDFTLTISSLQPEDFATYYCHGEFPHSSADLNHFGQGTKVEIKR', 9.64),
  ('COS0637pHv23-G1A3FcgSil+LowpI (antibody, V domains shown, VH 28, VL 51, CH 45, CL 23) VH: QVQLVESGGGVVQPGRSLRLSCAASGFTFSAYAMNWIRQPPGKGLEWIGLIYGTGHEFYASWAEERVTISVDTSKNQFSLKLSSVTAADTAVYYCARGRSKNYNSDFHIWGQGTLVTVSS VL: DIQMTQSPSSLSASVGDRVTITCQAHEILHDKKNLAWYQQKPGQPPKLLIYSASILESGVPSRFSGSGSGTDFTLTISSLQPEDFATYYCHGEFSHGSADLNHFGQGTKVEIKR', 9.60),
  ('COS0637pHv25-G1A3FcgSil+LowpI (antibody, V domains shown, VH 32, VL 55, CH 45, CL 23) VH: QVQLVESGGGVVQPGRSLRLSCAASGFTFSAYAMNWIRQPPGKGLEWIGLMYGSGHEFYASWAEERVTISVDTSKNQFSLKLSSVTAADTAVYYCARGRSKNYNSDFHLWGQGTLVTVSS VL: DIQMTQSPSSLSASVGDRVTITCQAHEILHDKKNLAWYQQKPGQPPKLLIYGASQRESGVPSRFSGSGSGTDFTLTISSLQPEDFATYYCHGEFPHSSADLNHFGQGTKVEIKR', 9.70),
  ('COS0637pHv15-G1A3FcgSil+LowpI (antibody, V domains shown, VH 24, VL 59, CH 45 (G1A3FcgSil+LowpI), CL 23) VH: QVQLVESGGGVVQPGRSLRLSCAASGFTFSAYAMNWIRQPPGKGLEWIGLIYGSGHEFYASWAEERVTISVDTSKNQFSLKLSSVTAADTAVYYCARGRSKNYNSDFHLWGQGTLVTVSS VL: DIQMTQSPSSLSASVGDRVTITCQANEILHDKKNLAWYQQKPGQPPKLLIYGASTLESGVPSRFSGSGSGTDFTLTISSLQPEDFATYYCHGEFSYHSADLNTFGQGTKVEIKR', 9.40),
  ('COS0637pHv21-G1A3FcgSil+LowpI (antibody, V domains shown, VH 24, VL 47, CH 45, CL 23) VH: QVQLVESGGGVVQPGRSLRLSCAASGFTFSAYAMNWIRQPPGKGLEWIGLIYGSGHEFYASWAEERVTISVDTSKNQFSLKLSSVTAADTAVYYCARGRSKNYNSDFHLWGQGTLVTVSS VL: DIQMTQSPSSLSASVGDRVTITCQAHEILHDKKNLAWYQQKPGQPPKLLIYSASILESGVPSRFSGSGSGTDFTLTISSLQPEDFATYYCHGEFSHGSGDLNHFGQGTKVEIKR', 9.59),
  ('COS0637pHv16-G1A3FcgSil+LowpI (antibody, V domains shown, VH 36, VL 55, CH 45, CL 23) VH: QVQLVESGGGVVQPGRSLRLSCAASGFTFSAYTMNWIRQPPGKGLEWIGLIYGSGHEFYASWAEERVTISVDTSKNQFSLKLSSVTAADTAVYYCARGRSKNYNSDFHLWGQGTLVTVSS VL: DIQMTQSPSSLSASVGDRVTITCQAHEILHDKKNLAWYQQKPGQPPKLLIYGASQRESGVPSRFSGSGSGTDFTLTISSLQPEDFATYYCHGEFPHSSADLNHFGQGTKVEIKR', 9.74);
